Sourced from the supplement of paper PMC10567573

B1: GMCL1 (parent)
chain: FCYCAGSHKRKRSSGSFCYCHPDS

Variants of: B1
experiment: protein stability index of a GFP-peptide fusion (GPS, HEK-293T) (PSI 1-6); higher = more stable;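 also: lentivirally expressed fusions sorted by FACS into six bins by GFP to DsRed ratio, PSI derived from sequencing read proportions per bin multiplied by bin number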
protocol conditions: c terminus: a fixed tail appended
Give measured protein stability index for each item. Keep answers brief.
One number for each entry.

Solved cases below.
FCYCAGSHKRKFSSGSFCYCHPDS : 1.64
FCYCAGSHKRKRSSGSFCVCHPDS : 3.03
FCYCAGSHKRIRSSGSFCYCHPDS : 2.92
FCYCAGSHKRKRSSGLFCYCHPDS : 1.26

Dear colleague, could you send me protein stability index for each of the items below? Thanks.
1. FCYCAGSHKRKRSSGFFCYCHPDS
2. FCYCAGSHKRKPSSGSFCYCHPDS
3. FCYCADSHKRKRSSGSFCYCHPDS
4. FCYCAGSHKRKRSSYSFCYCHPDS
5. FCYCAGSHKRKRSSGSWCYCHPDS
6. FCYCAGSHKRKCSSGSFCYCHPDS

1: 2.41; 2: 2.44; 3: 1.91; 4: 2.56; 5: 1.9; 6: 1.85
